- target under test: recombinant human cannabinoid receptor CB2 (Homo sapiens)
- Construct: (cDNA clone) CNR0200000
- assay details: Cannabinoid receptor radioligand binding assay, [3H]-CP 55,940 displacement, hCB2
- Protocol: Membranes were isolated from transfected cells as follows. Monolayers of cultured cells were washed twice with phosphate-buffered saline (PBS). […] Homogenates were centrifuged 10 minutes at 1000×g at 4° C. The supernatant was collected and was centrifuged for 1 hour at 40,000×g. […] Protein concentration of membrane suspensions were measured by Bradford Protein Assay using bovine serum albumin as the standard (BioRad catalog #500-0006). […]
pIC50: −log10 of the molar value.
quantity name: pIC50

input: What does the record list as pIC50 for CCCn1c(C)cc2cc(C(=O)c3cccc(Cl)c3Cl)sc21 [Compound 3] ?
output: 6.00 to 7.00

input: Recorded pIC50 for COc1ccc(C(=O)c2cc3cc(C)n(CCN4CCCC4)c3s2)cc1 [Compound 83] , please?
output: 6.00 to 7.00

input: Suppose we examine the compound COc1ccc(C(=O)c2cc3cc(C)n(CC4CCOCC4)c3s2)c(F)c1 [Compound 145] ; what pIC50 value has been reported?
output: > 7.00

input: Value lookup for pIC50; key = COc1cccc(C(=O)c2cc3cc(C)n(CCN4CCOCC4)c3s2)c1 [Compound 26]
output: > 7.00

input: Given the entry COc1ccc(C(=O)c2cc3cc(C)n(CCCNC(C)(C)C)c3s2)cc1 [Compound 108] , report its measured pIC50.
output: < 5.00

input: Please look up its pIC50: COc1ccc(C(=O)c2cc3cc(C)n(CCN4CCOCC4)c3s2)c(Cl)c1 [Compound 70]
output: > 7.00

input: GET /values?readout=pIC50&item= Cc1ccc(C(=N)c2cc3cc(C)n(CCN4CCOCC4)c3s2)cc1 [Compound 121]
output: 6.00 to 7.00

input: Record request: pIC50 value, item COc1ccc(C(=O)c2cc3cc(C)n(Cc4ccccc4)c3s2)c(Cl)c1 [Compound 114]
output: > 7.00

input: Which value of pIC50 has been reported for COc1ccc(C(=O)c2cc3cc(C)n(CC4CCOCC4)c3s2)cn1 [Compound 144] in the records?
output: 6.00 to 7.00

input: Param item = Cc1c(Cl)c2cc(C(=O)c3cccc(Cl)c3Cl)sc2n1CCN1CCOCC1 [Compound 27] ; retrieve measured pIC50.
output: > 7.00

input: What pIC50 value was documented for this compound, COc1ccc(C(=O)c2cc3cc(C)n(S(=O)(=O)CC4CCOCC4)c3s2)cc1 [Compound 57] ?
output: > 7.00

input: Data request, read-out pIC50, for Cc1cc2cc(C(=O)c3cccc(Cl)c3Cl)sc2n1CCN1CCOCC1 [Compound 1]
output: > 7.00

input: Data request, read-out pIC50, for Cc1cc2cc(C(=O)c3cccc4c3OCC4)sc2n1CCN1CCOCC1 [Compound 11]
output: 6.00 to 7.00

input: # lookup: pIC50 of COc1ccc(C(=O)c2cc3cc(C)n(CCN4CCCC4)c3s2)c(F)c1 [Compound 92]
output: 6.00 to 7.00

input: // pIC50 lookup, key: Cc1cc2cc(Cc3cccc(Cl)c3Cl)sc2n1CCN1CCOCC1 [Compound 32]
output: > 7.00

input: Find the recorded pIC50 belonging to COc1ccc(C(=S)c2cc3cc(C)n(CCN4CCOCC4)c3s2)cc1 [Compound 104] and report it.
output: 5.00 to 6.00

input: Consider the compound CCn1c(C)cc2cc(C(=O)c3cccc(Cl)c3Cl)sc21 [Compound 19] and give its measured pIC50.
output: 6.00 to 7.00

input: Request the reported pIC50 associated with Cc1ccc(C(O)c2cc3cc(C)n(CCN4CCOCC4)c3s2)cn1 (stereo not shown) [Compound 125]
output: < 5.00

input: Tell me the measured pIC50 of Cc1cc2cc(C(=O)c3ccc(Cl)c(Cl)c3)sc2n1CCN1CCOCC1 [Compound 9] , please.
output: 6.00 to 7.00

###

- target under test: recombinant human cannabinoid receptor CB2 (Homo sapiens, UniProt P34972)
- Construct: (cDNA clone) CNR0200000
- Sequence (P34972 whole entry): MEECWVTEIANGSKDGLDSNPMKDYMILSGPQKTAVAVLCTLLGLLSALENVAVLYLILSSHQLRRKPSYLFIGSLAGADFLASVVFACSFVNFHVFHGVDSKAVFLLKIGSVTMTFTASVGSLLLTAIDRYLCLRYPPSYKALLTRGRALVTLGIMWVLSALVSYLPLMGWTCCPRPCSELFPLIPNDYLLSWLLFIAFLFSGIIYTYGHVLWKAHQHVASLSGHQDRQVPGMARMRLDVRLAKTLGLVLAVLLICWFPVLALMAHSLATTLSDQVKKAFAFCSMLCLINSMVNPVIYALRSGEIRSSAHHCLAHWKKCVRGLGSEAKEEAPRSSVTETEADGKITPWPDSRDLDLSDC
- assay details: Cannabinoid receptor radioligand binding assay, [3H]-CP 55,940 displacement, hCB2
pIC50: −log10 of the molar value.
quantity name: pIC50

input: Query (compound): COc1ccc(C(=O)c2cc3cc(C)n(CCN4CCCCC4)c3s2)cc1 [Compound 78] ; field requested: pIC50
output: > 7.00

input: Return reported pIC50; argument: COc1ccc(C(=O)c2cc3cc(C)n(CCCN4CCOCC4)c3s2)cc1 [Compound 107]
output: > 7.00

input: Fill in the blank: the reported pIC50 of CCc1ccc(C(=O)c2cc3cc(C)n(CCN4CCOCC4)c3s2)cc1 [Compound 122] is ____.
output: > 7.00

input: Could you tell me which pIC50 is on file for COc1ccc(C(=O)c2cc3cc(C)n(CCN4CCOCC4)c3s2)c(C(F)(F)F)c1 [Compound 119] ?
output: > 7.00

input: Name the reported pIC50 value associated with the compound Cc1cc2cc(C(=O)c3cccc(Cl)c3Cl)sc2n1S(=O)(=O)N1CCOCC1 [Compound 45]
output: > 7.00

input: pIC50 lookup needed for COc1ccc(C(=O)c2cc3cc(C)n(CCN4CCOCC4)c3s2)c(F)c1 [Compound 68] , thanks.
output: > 7.00

input: Consider the compound shown here: COc1ccc(C(=O)c2cc3cc(C)n(CCN4CCCCC4)c3s2)cn1 [Compound 117] What is its recorded pIC50?
output: 6.00 to 7.00

input: Name the recorded pIC50 for Cc1cc2cc(C(=O)c3ccc(F)cc3F)sc2n1CCN1CCOCC1 [Compound 135] .
output: 6.00 to 7.00

input: Please look up its pIC50: COc1ccc(C(=O)c2cc3cc(C)n(CCN4CCSCC4)c3s2)cc1 [Compound 110]
output: > 7.00

input: Query (compound): COc1ccc(C(=O)c2cc3cc(C)n(CCn4ccnc4)c3s2)cc1 [Compound 67] ; field requested: pIC50
output: 5.00 to 6.00

input: So what's the measured pIC50 for this one? Cc1cc2cc(C(=O)c3cccc(Cl)c3Cl)sc2n1CCCNS(C)(=O)=O [Compound 37]
output: > 7.00

input: Quick one: pIC50 for COc1ccc(C(=O)c2cc3c(Cl)c(C)n(CCN4CCOCC4)c3s2)cc1 [Compound 140] ?
output: 6.00 to 7.00

input: Find the recorded pIC50 belonging to COc1ccc(C(=O)c2cc3cc(C)n(CCN4CCOCC4)c3s2)cc1Cl [Compound 116] and report it.
output: 6.00 to 7.00

input: Query (compound): Cc1cc2cc(C(=O)c3ccc(N(C)C)cc3)sc2n1CCN1CCOCC1 [Compound 59] ; field requested: pIC50
output: 5.00 to 6.00

input: So what does the record say about pIC50 for Cc1cc2cc(C(=O)c3cccc(Cl)c3Cl)sc2n1CC1CCCCN1C (stereo not drawn) [Compound 24] ?
output: > 7.00

input: What value of pIC50 has been reported for the following compound? COc1ccc(C(=O)c2cc3cc(C)n(CCN4CCCC4C(=O)O)c3s2)cn1 (stereo not drawn) [Compound 146]
output: 6.00 to 7.00

input: // returns reported pIC50 for input COc1ccc(C(=O)c2cc3cc(C)n(CCC4CCOCC4)c3s2)cc1 [Compound 82]
output: > 7.00

input: Find the recorded pIC50 belonging to COc1ccc(C(=O)c2cc3cc(C)n(CCN4CCOCC4)c3s2)nc1 [Compound 131] and report it.
output: 6.00 to 7.00

###

- target under test: human CB1 receptors (Homo sapiens)
- Construct: (cDNA clone) CNR01L000
- Sequence (P21554 whole entry): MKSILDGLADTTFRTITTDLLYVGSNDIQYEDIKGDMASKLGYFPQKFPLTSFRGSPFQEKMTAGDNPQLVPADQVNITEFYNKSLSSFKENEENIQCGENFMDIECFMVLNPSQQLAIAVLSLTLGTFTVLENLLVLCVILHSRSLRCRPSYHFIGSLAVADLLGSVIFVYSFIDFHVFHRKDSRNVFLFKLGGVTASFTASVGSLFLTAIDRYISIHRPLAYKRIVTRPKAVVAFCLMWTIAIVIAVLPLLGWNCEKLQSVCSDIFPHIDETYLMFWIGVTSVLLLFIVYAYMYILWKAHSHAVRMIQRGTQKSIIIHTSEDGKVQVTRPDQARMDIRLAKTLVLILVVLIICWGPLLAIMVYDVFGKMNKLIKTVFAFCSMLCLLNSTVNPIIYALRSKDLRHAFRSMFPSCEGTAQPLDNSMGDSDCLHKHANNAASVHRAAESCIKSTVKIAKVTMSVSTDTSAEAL
- assay details: cAMP assay in HEK-293 cells, hCB1 agonist
- Assay type: cell-based
- reported conditions: inhibition of forskolin-stimulated cAMP, HEK-293 cells; read-out: hCB1 EC50 (cAMP ag)
Would you kindly list EC50 for each of these compounds?

input: Can you look up the measured EC50 of Cc1cc2cc(C(=O)c3ccc(F)cc3Cl)sc2n1CCN1CCOCC1 [Compound 64] for me?
output: 0.1 to 1 µM

input: Please report the recorded EC50 for CCOc1ccc(C(=O)c2cc3cc(C)n(CCN4CCOCC4)c3s2)c(Cl)c1 [Compound 126] .
output: 1 to 10 µM

input: I would be grateful if you could share the reported EC50 for Cc1cc2cc(C(=O)c3ccc(O)cc3F)sc2n1CCN1CCOCC1 [Compound 165] .
output: 0.1 to 1 µM

input: For COc1ccc(C(=O)c2cc3cc(C)n(CCN4CCCC4)c3s2)cc1 [Compound 83] , what is its reported EC50?
output: 1 to 10 µM

input: Which EC50 value is on record for COc1ccc(C(=O)c2cc3cc(C)n(CCC4CCOCC4)c3s2)cc1 [Compound 82] ?
output: 0.1 to 1 µM

input: What does the record list as EC50 for COc1ccc(C(=O)c2cc3cc(C)n(CCCN4CCOCC4)c3s2)cc1 [Compound 107] ?
output: 0.1 to 1 µM

input: Data request, read-out EC50, for Cc1cc2cc(C(=O)c3ccccc3)sc2n1CCN1CCOCC1 [Compound 7]
output: 1 to 10 µM

input: Form field: reported EC50 of COc1ccc(C(=O)c2cc3cc(C)n(Cc4ccccc4)c3s2)c(Cl)c1 [Compound 114]
output: 1 to 10 µM

input: Endpoint output: EC50 of Cc1cc2cc(C(=O)c3cccc(Cl)c3Cl)sc2n1CC(=O)N1CCOCC1 [Compound 22] . Value?
output: 0.1 to 1 µM

Just for reference, patent US20130029970A1 is where these values come from.
